Organism: Rattus norvegicus
assay-notes: […]
Type: functional
metric-name: Nitric oxide (%)
Number in %, nothing else.

Answered cases to consult:
COC(=O)C1=C(C)N=C(C)/C(=C(/O)OC)C1c1ccccc1OCc1c(C#N)no[n+]1[O-] (configuration not stated) :: 24
COC(=O)C1=C(C)N=C(C)/C(=C(/O)OC)C1c1cccc(OCc2c(C#N)no[n+]2[O-])c1 (configuration not stated) :: 31.5

Fill in Nitric oxide for record COC(=O)C1=C(C)N=C(C)/C(=C(/O)OC)C1c1cccc(OCc2c(C(N)=O)no[n+]2[O-])c1 (configuration not stated)
7.6

* * *

Species on record: Rattus norvegicus
assay-notes: […]
Format: functional
metric-name: Nitric oxide

COC(=O)C1=C(C)N=C(C)/C(=C(/O)OC)C1c1cccc(OCCO[N+](=O)[O-])c1 (centres undefined) :: <0.5%
COC(=O)C1=C(C)N=C(C)/C(=C(/O)OC)C1c1ccccc1OCCO[N+](=O)[O-] (centres undefined) :: <0.5%

Read off the recorded Nitric oxide for COC(=O)C1=C(C)N=C(C)/C(=C(/O)OC)C1c1cccc(OCc2no[n+]([O-])c2C)c1 (centres undefined)
<0.5%

# return recorded Nitric oxide for input COC(=O)C1=C(C)N=C(C)/C(=C(/O)OC)C1c1cccc(OCc2c(C)no[n+]2[O-])c1 (centres undefined)
<0.5%
